System: THRa:RXRa (NR concentration 90 nM, RXRa partner concentration 90 nM)
Assay: PBM binding z-score (relative to random genomic background probes); higher = stronger binding; sequences stand for … in GC…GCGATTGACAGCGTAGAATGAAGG
Reported values of PBM binding z-score for individual entries
The response must contain the number and no unit.

Use the examples below as a reference point.
Sequence code	PBM binding z-score
CGAACTAGGTCATCCAGGACAGGGAATACATTGA	3.52
AGAACTAGGGCACGCTGAGTTGATAGCAGAGTAG	0.309
GCTGCTAGGTCAGGTTGGCCAGCTAACGGGTACG	1.46
CCGACTGGGGCAAGGTTACAATAACGCACAGCCA	1.09
TCTTGTAGATCAATACAGGTTAAGAAAGTGCGCT	1.46
GCTGCTAGGTCAACTAATGGTCAGCTAAAGCTCG	2.74
TCTCGGAGGACTCGAAGGTCAGAGCTTTCCAGAG	1.65
TTTTGTAGATCAAAGGTTAAGAAAGCCGAAGCCT	1.3
ATCGAAAGGTCGAGGTGAGAATAGAGAAAGGGAA	2.73
CGTCCAAGGTCAAAGCTAGGTCAGTGAAAGCATT	4.57

Input: Note down PBM binding z-score recorded for TCATATAGGTAAACAAGTGAAAGTCCGTAAGTTA
Output: 0.265

Input: Output measured PBM binding z-score for this item: ATATGTAGGTTAAATCCGGGTCATTCAGGCTATG
Output: 4.46

----------
System: RARa:RXR (NR concentration 270 nM, RXRa partner concentration 90 nM)
Test: PBM binding z-score (relative to random genomic background probes); higher = stronger binding; sequences stand for … in GC…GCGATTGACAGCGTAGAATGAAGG
Records here are stratified by PBM binding z-score; strata: class A = under 2, class B = from 2 up to 4, class C = 4 and over

Sequence code	Test system	Class name
ACTAGCAGGGCAAGTTTGGGTCACTCAAACAAAG	RARa:RXR (NR concentration 270 nM, RXRa partner concentration 90 nM)	class B
CCGACTGGGGCAAGGCTACCATAACGCACAGCCA	RARa:RXR (NR concentration 270 nM, RXRa partner concentration 90 nM)	class A
GTACCAAGGTGAATAGGTCGTTTATGAGTAGGCG	RARa:RXR (NR concentration 270 nM, RXRa partner concentration 90 nM)	class A
TAGCCTAGGTCATTCAGGGGCCAGTACAGAAAGC	RARa:RXR (NR concentration 270 nM, RXRa partner concentration 90 nM)	class B
AGAATGAGGTTAACATCAGGGAAACAGAATACAT	RARa:RXR (NR concentration 270 nM, RXRa partner concentration 90 nM)	class B
CCTAGTTGGACAGGAGGTCACACACCGGATATGA	RARa:RXR (NR concentration 270 nM, RXRa partner concentration 90 nM)	class C
CCTACTGGGCCAGAAAGGTCATTGATGCCGATAA	RARa:RXR (NR concentration 270 nM, RXRa partner concentration 90 nM)	class C
CCTAATGGGCCATCAGGTCATTGATATCAACGTT	RARa:RXR (NR concentration 270 nM, RXRa partner concentration 90 nM)	class B
GATACAGGGTCAAGCCCAGAGTACGCGTATTGAT	RARa:RXR (NR concentration 270 nM, RXRa partner concentration 90 nM)	class C
ATCTCTAGGTAACCAAGTGCAGTGAATGCCGAAC	RARa:RXR (NR concentration 270 nM, RXRa partner concentration 90 nM)	class A

Input: For ATCTCTAGGTAAGACTCAGTTCAGGGAAGAACGC , which PBM binding z-score bin applies?
Output: class A

----------
The entries below are paired with their reported PBM binding z-score.
Test system: THRa homodimer (NR concentration 90 nM)
Assay: PBM binding z-score (relative to random genomic background probes); higher = stronger binding; sequences stand for … in GC…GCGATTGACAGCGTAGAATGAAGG

Recorded results for 5 sequences are shown here.
Sequence code	Test system	Test readout	Measured result
TCTGCTAGGTCAACGATGGTCTGCTAATCTGCTA	THRa homodimer (NR concentration 90 nM)	PBM binding z-score	0.712
TGAATGAGGTTAAAGATCAGGGATCGTGGCGTCG	THRa homodimer (NR concentration 90 nM)	PBM binding z-score	0.0472
ATCTCTAGTTAAGACTCAGTTCAGTGAAGAACGC	THRa homodimer (NR concentration 90 nM)	PBM binding z-score	0.6
ATCGAAAGGTCGAGGTGAGCATAGAGAAAGGGAA	THRa homodimer (NR concentration 90 nM)	PBM binding z-score	0.737
ATCTCTAGGTAACAAGTTCGGTGAAAGAGAGGAC	THRa homodimer (NR concentration 90 nM)	PBM binding z-score	0.922

Now examine the next entry.
Input: Query PBM binding z-score for GGAACGATGGCAAAGTTGATAGCATCTGTCGACG
Output: -1.03

----------
Test system: FXR:RXRa (NR concentration 270 nM, RXRa partner concentration 90 nM)
Test: PBM binding z-score (relative to random genomic background probes); higher = stronger binding; sequences stand for … in GC…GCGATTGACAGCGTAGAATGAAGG
Outcome label depends on PBM binding z-score relative to 2: at/above gives y, below gives n.

Known results for sequences:
Sequence code	Class name
TCTCGTAGATCAAAGGTTAAGAAAGCCGAAGCCT	n
CCTAGGAGGCCAATCTGGGTCACTCAAGGCTTGA	n
CGTCCAAGGTCAAAGGTCAGTCAAGAGATGACGG	y
ATCGATAGGTCGAGGTGAGTATAGAGAAAGGGAA	n
CTTCCAAGGTCAGCAGGTCAGTGAAAGCGACGTG	y
CCTACTGGGCCAAGGTAATTGATCAGTCAAAGCA	n
ATCTCTAGGTTAAGTTCAGTGAAAGATCGATAGA	n
TGCCAAAGTTCAAAGGTAACGTAAGTATCCACAC	y
TTACCAAGGTGATGGTCGTTGATCCCTCTGTAGA	n
CGTCCAAGGTCAAGGTCAGTGAGAGAGACTCGAA	y

Input: Quick check: does CCTACTGGGCCACGAAGGGTCATTGATTCAGTGA have PBM binding z-score greater than or equal to 2?
Output: y

Input: API: above_or_equal(metric=PBM binding z-score, cutoff=2) for item CTTACTGGGCCAAGGTCATTGATCAGTCAAAGCA
Output: y

----------
Test system: RARg homodimer (NR concentration 270 nM)
Experiment: PBM binding z-score (relative to random genomic background probes); higher = stronger binding; sequences stand for … in GC…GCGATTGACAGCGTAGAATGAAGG
Quick rule for you: PBM binding z-score at 1 or higher means Met, lower means Not met.

Example results:
Sequence code	Class name
ACTATTAGTTTAGACGAGGGCAACCGATAGGTTG	Met
GATACAGGGTCAGCTAGAGGCCAGACTATGGAAA	Met
TATCCTAGGTCATGCGGGCCAGTATAGTGTCGGC	Met
AGTATGAGGTTATTAAGATCAGGGAATTGCGGTC	Met
TTATATAGGTAAATGCTAGGTGAAAGTCCGATCT	Not met

Input: Given CCTACTCGGCCAAAGGTCATTGATTCCAATGCTC , state whether its PBM binding z-score is at least 1.
Output: Met

Input: Does PBM binding z-score meet or surpass 1 for CCTAACAGGCCAGGGTCACTCAAGCATTTCGCTT ?
Output: Met

Input: State whether the measured PBM binding z-score reaches 1, counting equality as reaching it, for TATACAGGGTCAAAGACCAGAGTACGAATGTCGA
Output: Met

Input: Identify whether the reported PBM binding z-score of the following sequence is 1 or greater: AACTCTAGGTAACAAGTTCAGTGAAAGAGAGGAC
Output: Met

Input: Form field: PBM binding z-score at least 1? Entry: TCGAGTAGGTTAGGGGCATTCATAATGGCGTCGA
Output: Not met

Input: Quick check, PBM binding z-score >= 1? CAAACTAGGTCAAAGGGCAAAGTCGAGCCAACCA
Output: Met

Input: Does ATACCAAGGTGATCGTGAGGTCTTTGATACTAAC have a reported PBM binding z-score of at least 1?
Output: Not met

Input: Evaluate TCAGACAGGTGAAGGTATCTCAGGTACGCAGTCG : PBM binding z-score at minimum 1?
Output: Not met

Input: Is PBM binding z-score for TCATATAGGTAATACAGGTGAAAGTGGGCATCTA at or above 1?
Output: Not met

Input: State whether the measured PBM binding z-score reaches 1, counting equality as reaching it, for CAAACTAGGTCACAAAGGTCAAAGTCCGTGCGTA
Output: Met

----------
Tested on: RARb homodimer (NR concentration 270 nM)
Assay: PBM binding z-score (relative to random genomic background probes); higher = stronger binding; sequences stand for … in GC…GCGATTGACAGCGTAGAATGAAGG
Mark False for PBM binding z-score values under 2, and True for everything at or above.

Sequence code	Class name
CGAACTAGGTCATCCCGGACAGTGAATACATTGA	True
GCTAGTTGGTCAGTAAAAGGTCACCCACCGGTCG	True
CCTTACGGGTCACTGACCGGTTATAGCATTTGGA	True
ACAGACAGGTGAGTGAAGGTAAGTCAGCTGGACG	False

Turning to the following sequence.
Input: Quick check, PBM binding z-score >= 2? CAGCCTAGGTCAGGGCCAGTAGAGGAGGAACGTT
Output: True
